src = patent US20180353483A1

# ASSAY_SUMMARY: Pharmacokinetics of Compound 1 in combination with MK-3475 in subjects with various cancers
# Format: in vivo, human
# REPORTED_CONDITIONS: Cohort 5, 100 mg BID, steady state C1D8, geometric mean
METRIC_NAME: Cmax (nM)
I only need the number, in nM, no unit after it.

Which Cmax value belongs to NS(=O)(=O)NCCNc1nonc1C(=NO)Nc1ccc(F)c(Br)c1 ?
803

###

# ASSAY_SUMMARY: Pharmacokinetics of Compound 1 in combination with MK-3475 in subjects with various cancers
# Type: in vivo, human
# REPORTED_CONDITIONS: human, plasma, oral, 100 mg, Cohort 5, 100 mg, first dose, mean ± SD
# Method: The subjects were not limited to a specific cancers and study include subjects with various cancers. […] One treatment cycle consisted of 21 days. […] The RP2D was selected from the evaluated safety expansions. […] Pharmacokinetic samples were obtained at the visits of Cycle 1 Day 1, Cycle 1 Day 8 and Cycle 2 Day 1. […] The exact date and time of the PK blood draws were recorded in the eCRF along with the date and time of the last dose of study drug and details of the last meal preceding the blood draw. […]
METRIC_NAME: Cmax (nM)
I only need the number, in nM, no unit after it.

Which Cmax value belongs to NS(=O)(=O)NCCNc1nonc1C(=NO)Nc1ccc(F)c(Br)c1 [Compound 1] ?
852
